tested on: recombinant human baculoviral VEGFR2 cyctoplasmic domain (Homo sapiens)
Construct: recombinant human baculoviral VEGFR2 cyctoplasmic domain; host or cells: baculovirus expression system
Sequence (P35968 786-1356 limits assumed): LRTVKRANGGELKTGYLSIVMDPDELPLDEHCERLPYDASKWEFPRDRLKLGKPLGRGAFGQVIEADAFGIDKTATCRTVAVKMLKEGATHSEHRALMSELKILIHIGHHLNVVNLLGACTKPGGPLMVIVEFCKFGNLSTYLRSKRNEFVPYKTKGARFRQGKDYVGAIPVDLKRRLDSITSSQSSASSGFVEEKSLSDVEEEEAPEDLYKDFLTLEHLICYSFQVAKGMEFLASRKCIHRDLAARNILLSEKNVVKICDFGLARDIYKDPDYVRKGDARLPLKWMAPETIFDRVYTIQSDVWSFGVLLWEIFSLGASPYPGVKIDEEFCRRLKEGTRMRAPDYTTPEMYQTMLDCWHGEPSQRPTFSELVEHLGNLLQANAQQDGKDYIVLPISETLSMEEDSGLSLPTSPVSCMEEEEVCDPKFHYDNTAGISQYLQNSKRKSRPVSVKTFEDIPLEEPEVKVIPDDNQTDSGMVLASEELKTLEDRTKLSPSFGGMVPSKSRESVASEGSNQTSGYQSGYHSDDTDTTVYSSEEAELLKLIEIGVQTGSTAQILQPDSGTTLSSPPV
experimental details: VEGFR2 kinase inhibition assay (ELISA-based, time-resolved fluorescence)
Assay type: biochemical
study conditions: 1 uM compound; 30 μM ATP; read-out: VEGFR-2 kinase % inhibition @ 1 uM
Binary classification by inhibition at 1 µM, with 60% as an inclusive lower bound for true; all other cases are false.

structure notation | tested on | class
O=C1NN=C(c2cccs2)C1=Cc1c[nH]c2ccccc12 | recombinant human baculoviral VEGFR2 cyctoplasmic domain (Homo sapiens) | false
Cc1cc(C)c(C=C2C(=O)NN=C2c2ccsc2)[nH]1 | recombinant human baculoviral VEGFR2 cyctoplasmic domain (Homo sapiens) | true
Cc1cc(C)c(C=C2C(=O)NN=C2c2cc3ccccc3o2)[nH]1 | recombinant human baculoviral VEGFR2 cyctoplasmic domain (Homo sapiens) | false
O=C1NN=C(c2ccco2)C1=Cc1c[nH]c2ccccc12 | recombinant human baculoviral VEGFR2 cyctoplasmic domain (Homo sapiens) | true
O=C1NN=C(c2nccs2)C1=Cc1c[nH]c2ccccc12 | recombinant human baculoviral VEGFR2 cyctoplasmic domain (Homo sapiens) | true

* * *

tested on: baculovirus-expressed human trkA cytoplasmic domain (Homo sapiens, UniProt P04629)
Construct: baculovirus-expressed human trkA cytoplasmic domain; host or cells: baculovirus expression system
Sequence (P04629 440-796 limits assumed): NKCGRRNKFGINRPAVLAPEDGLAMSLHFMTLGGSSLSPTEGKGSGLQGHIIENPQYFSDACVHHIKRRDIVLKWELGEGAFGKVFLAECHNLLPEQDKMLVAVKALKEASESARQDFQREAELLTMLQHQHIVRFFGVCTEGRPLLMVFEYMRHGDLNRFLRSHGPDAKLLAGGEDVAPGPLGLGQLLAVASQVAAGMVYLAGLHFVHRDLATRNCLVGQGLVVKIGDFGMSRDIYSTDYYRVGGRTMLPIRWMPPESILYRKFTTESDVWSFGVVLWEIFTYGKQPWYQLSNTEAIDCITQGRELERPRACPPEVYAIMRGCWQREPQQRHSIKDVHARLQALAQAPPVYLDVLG
experimental details: trkA tyrosine kinase inhibition assay (ELISA-based)
Assay type: biochemical
study conditions: 1 uM compound; 40 μM ATP

structure notation | trkA % inhibition @ 1 uM
Cn1ccc(C2=NNC(=O)C2=Cc2c[nH]c3cccc(OCc4ccccc4)c23)c1 | 39%
Cn1ccc(C2=NNC(=O)C2=Cc2c[nH]c3ccccc23)c1 | 22%
Cn1ccc(C2=NNC(=O)C2=Cc2c[nH]c3ccc(F)cc23)c1 | 8%
Cc1[nH]c(C=C2C(=O)NN=C2c2ccoc2)c(Br)c1Br | 20%
Cc1cc(C)c(C=C2C(=O)NN=C2c2ccncc2)[nH]1 | 60%

* * *

tested on: baculovirus-expressed human trkA cytoplasmic domain (Homo sapiens)
Construct: baculovirus-expressed human trkA cytoplasmic domain; host or cells: baculovirus expression system
experimental details: trkA tyrosine kinase inhibition assay (ELISA-based)
Assay type: biochemical
study conditions: 1 uM compound; 40 μM ATP
Method: Inhibition of trkA Tyrosine Kinase Activity Selected heterocyclic substituted pyrazolones were tested for their ability to inhibit the kinase activity of baculovirus-expressed human trkA cytoplasmic domain using an ELISA-based assay as previously described (Angeles et al., Anal. Biochem. 236: 49-55, 1996). […] The activity of the bound enzyme was measured via an amplified detection system (Gibco-BRL). […]
property label: trkA % inhibition @ 1 uM (%)

compound | unit symbol | reported value
O=C1NN=C(c2ccco2)C1=Cc1cn(Cc2ccccc2)c2ccccc12 [Compound 69] | % | 35
O=C1NN=C(c2ccoc2)C1=Cc1c[nH]c2ccc(Cl)cc12 [Compound 17] | % | 52
Cc1cc(C)c(C=C2C(=O)NN=C2c2cccnc2)[nH]1 [Compound 10] | % | 26
CCOC(=O)CCc1c(C(=O)OCC)[nH]c(C=C2C(=O)NN=C2c2ccoc2)c1CC(=O)OCC [Compound 7] | % | 33
Cc1cc(C)c(C=C2C(=O)NN=C2c2ccccn2)[nH]1 [Compound 30] | % | 22

* * *

tested on: baculoviral GST-MLK1KD (Homo sapiens, UniProt P80192)
Construct: 1 μg/ml of baculoviral GST-MLK1KD; GST (N); host or cells: baculovirus expression system
Sequence (P80192 144-412 limits assumed): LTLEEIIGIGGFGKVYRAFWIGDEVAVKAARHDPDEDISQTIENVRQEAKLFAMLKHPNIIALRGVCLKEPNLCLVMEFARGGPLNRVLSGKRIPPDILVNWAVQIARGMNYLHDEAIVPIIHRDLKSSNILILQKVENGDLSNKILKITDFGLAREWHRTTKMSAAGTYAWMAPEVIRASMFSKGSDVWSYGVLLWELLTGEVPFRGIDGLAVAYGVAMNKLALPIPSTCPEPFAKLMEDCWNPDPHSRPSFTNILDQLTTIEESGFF
experimental details: Mixed Lineage Kinase-1 inhibition assay (Millipore Multiscreen TCA in-plate, 32P)
Assay type: biochemical
study conditions: 1 uM compound; 60 μM ATP
property label: MLK-1 Kinase % inhibition @ 1 uM

structure notation | property label | reported value
Cc1cc(C)c(C=C2C(=O)NN=C2c2cccnc2)[nH]1 | MLK-1 Kinase % inhibition @ 1 uM | 22%
Cn1cc(C=C2C(=O)NN=C2c2ccoc2)c2ccccc21 | MLK-1 Kinase % inhibition @ 1 uM | 21%
O=C1NN=C(c2ccco2)C1=Cc1c[nH]c2ccc(Cl)cc12 | MLK-1 Kinase % inhibition @ 1 uM | −10%
Cc1cccc2c(C=C3C(=O)NN=C3c3ccco3)c[nH]c12 | MLK-1 Kinase % inhibition @ 1 uM | 33%
Cn1cc(C=C2C(=O)NN=C2c2cccs2)c2ccccc21 | MLK-1 Kinase % inhibition @ 1 uM | 14%
Cc1cccc2c(C=C3C(=O)NN=C3c3ccoc3)c[nH]c12 | MLK-1 Kinase % inhibition @ 1 uM | 1%
O=C1NN=C(c2ccoc2)C1=Cc1c[nH]c2ccc(Cl)cc12 | MLK-1 Kinase % inhibition @ 1 uM | 6%

Reference for the values: patent US6831075B2
